Where do the numbers come from? From the supplement of paper PMC6555819.

test system: VDR homodimer (NR concentration 270 nM); experiment: PBM binding z-score (relative to random genomic background probes); higher = stronger binding; sequences stand for … in GC…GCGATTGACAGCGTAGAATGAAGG
Reported PBM binding z-score values are given for each entry in this list.
READOUT LABEL: PBM binding z-score

POLYMER SEQUENCE	READOUT LABEL	NUMERIC RESULT
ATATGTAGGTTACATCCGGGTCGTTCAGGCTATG	PBM binding z-score	1.82
TCTATTAGTTGACTAGGGCAACCGAAACAGCGGA	PBM binding z-score	0.286
ACTAGCAGGTCAAGTTTGGGTCACTCAAACAAAG	PBM binding z-score	2.13

* * *

tested on: RARa:RXR (NR concentration 270 nM, RXRa partner concentration 90 nM); test: PBM binding z-score (relative to random genomic background probes); higher = stronger binding; sequences stand for … in GC…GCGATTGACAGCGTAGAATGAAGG
Reported PBM binding z-score values are given for each entry in this list.

POLYMER SEQUENCE	EXPERIMENTAL SYSTEM	PBM binding z-score
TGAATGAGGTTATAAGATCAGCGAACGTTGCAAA	RARa:RXR (NR concentration 270 nM, RXRa partner concentration 90 nM)	1.33
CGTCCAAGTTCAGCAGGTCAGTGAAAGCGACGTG	RARa:RXR (NR concentration 270 nM, RXRa partner concentration 90 nM)	2.38
TCTAGTTGGTCACGGAGGTCACAGACGACGGGTA	RARa:RXR (NR concentration 270 nM, RXRa partner concentration 90 nM)	4.83
AGAATGAGGTTATAAAGATCAGGGAATTGCGGTC	RARa:RXR (NR concentration 270 nM, RXRa partner concentration 90 nM)	1.58

* * *

Reported PBM binding z-score values are given for each entry in this list.
system: RARa homodimer (NR concentration 270 nM); test: PBM binding z-score (relative to random genomic background probes); higher = stronger binding; sequences stand for … in GC…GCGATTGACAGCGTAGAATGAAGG
READOUT LABEL: PBM binding z-score

POLYMER SEQUENCE	RESULT
TCTTGTAGATCAATAGAGCTTAAGAAAGTGCGCT	-1.02
TCATATAGGTAAATGCTAAGTGAAAGTCCGATCT	0.763
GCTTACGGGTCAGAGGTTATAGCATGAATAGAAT	0.521
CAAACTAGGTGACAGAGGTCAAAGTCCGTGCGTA	1.29
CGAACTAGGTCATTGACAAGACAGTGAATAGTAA	0.336
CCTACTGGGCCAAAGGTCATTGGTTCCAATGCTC	0.819
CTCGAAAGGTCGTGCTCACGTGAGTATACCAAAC	-0.039
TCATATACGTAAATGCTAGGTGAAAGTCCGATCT	0.987
TCAAATAGGTAAAGGTGAAAGTCGAACGATATGA	0.988
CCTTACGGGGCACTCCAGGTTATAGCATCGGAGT	-0.55
TCTTGTAGATCAAGGGTTAAGAAAGCCGAAGCCT	-0.354
AGAATGAGGTGATTAAGATCAGGGAATTGCGGTC	-0.457
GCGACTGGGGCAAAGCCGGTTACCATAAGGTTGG	-0.427
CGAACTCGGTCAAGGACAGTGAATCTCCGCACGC	-0.323
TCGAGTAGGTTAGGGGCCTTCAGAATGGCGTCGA	-1.13
GCTTGTAGATCATGGTTAAGAAAGACTAAGCTAA	-0.00288
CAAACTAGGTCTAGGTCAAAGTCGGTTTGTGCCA	-0.42
CGAACTAGGTGATCCAGGACAGTGAATACATTGA	0.271
CCGACAGGGGCATAAGGTTACCATAAGCCAGCCC	-0.124
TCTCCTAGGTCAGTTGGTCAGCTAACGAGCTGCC	0.238

* * *

Reported PBM binding z-score values are given for each entry in this list.
tested on: PPARg DBDmut:RXRa IVT, anti-PPARg (DBD mutation: PPARg1 K132A/R137A, NR concentration 270 nM, RXRa partner concentration 90 nM); experiment: PBM binding z-score (relative to random genomic background probes); higher = stronger binding; sequences stand for … in GC…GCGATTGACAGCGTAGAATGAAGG

POLYMER SEQUENCE	PBM binding z-score
TGTTGTAGATCAAGCAGGTTAAGAAAGCCTGAGT	0.0224
CAAACTAGGTCACCGGAAGGTCAACGTCCGCATG	2.66
AGAATGAGGTTAAGATCAGTGAAACAGAATACAT	1.66
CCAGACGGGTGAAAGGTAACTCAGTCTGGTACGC	-1

* * *

tested on: RARg homodimer (NR concentration 270 nM); test: PBM binding z-score (relative to random genomic background probes); higher = stronger binding; sequences stand for … in GC…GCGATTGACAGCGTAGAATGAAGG
Reported PBM binding z-score values are given for each entry in this list.

POLYMER SEQUENCE	EXPERIMENTAL SYSTEM	PBM binding z-score
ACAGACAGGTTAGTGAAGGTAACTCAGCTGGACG	RARg homodimer (NR concentration 270 nM)	0.773
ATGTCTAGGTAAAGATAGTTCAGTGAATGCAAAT	RARg homodimer (NR concentration 270 nM)	0.794
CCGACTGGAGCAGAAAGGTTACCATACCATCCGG	RARg homodimer (NR concentration 270 nM)	0.946
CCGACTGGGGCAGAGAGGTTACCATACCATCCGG	RARg homodimer (NR concentration 270 nM)	1.2
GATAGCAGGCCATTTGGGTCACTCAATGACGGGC	RARg homodimer (NR concentration 270 nM)	1.5
ATCGACAGGTCGAGGTGAGTATAGAGAAAGGGAA	RARg homodimer (NR concentration 270 nM)	1.89
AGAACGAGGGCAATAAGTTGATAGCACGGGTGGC	RARg homodimer (NR concentration 270 nM)	1.56

* * *

test system: PXR homodimer (NR concentration 270 nM); experiment: PBM binding z-score (relative to random genomic background probes); higher = stronger binding; sequences stand for … in GC…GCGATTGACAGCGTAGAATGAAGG

POLYMER SEQUENCE	PBM binding z-score
TATACAGGGTCAATGGCCAGAGTACGAATGTCGA	0.633
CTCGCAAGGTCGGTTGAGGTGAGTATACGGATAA	-0.0452
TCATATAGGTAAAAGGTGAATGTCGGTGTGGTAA	0.679
CGAACTAGGTCAGAACATGACAGTGAAGGATGAT	-0.286
TAGCTTAGGTCATTGGGCCAGTATAGTACGCATC	0.132
TCGCGGAGGACACGAAGGTCAGAGCTTTCCAGAG	0.425
ACTCGGAGGACAAAGGGCAGAGCTACGCCAGTGA	-0.407
TCAGACAGGTGAAGGCAACTCAGGTACGCAGTCG	-0.101
CCTTACGGGTCACTCCAGGTTGTAGCATCGGAGT	-0.0202
CCTACTGGGCCGTCAGGTCATTGATATCAACGTT	0.502
GGAACGAGAGCATTCGAGTTGATAGCATGGCGAT	-0.766
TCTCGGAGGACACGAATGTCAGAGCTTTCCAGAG	-0.893
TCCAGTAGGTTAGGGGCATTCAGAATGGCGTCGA	0.251
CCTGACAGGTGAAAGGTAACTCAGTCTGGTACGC	-0.396
CTCGAAAGGTCGGTTGAGGTGATTATACGGATAA	0.3
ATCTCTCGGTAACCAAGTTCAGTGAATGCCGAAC	1.8
ATCTCTAGGTAAAGTACAGTGAAAGATCGATAGA	0.479

* * *

Reported PBM binding z-score values are given for each entry in this list.
system: PPARg:RXRa IVT, anti-PPARg (NR concentration 270 nM, RXRa partner concentration 90 nM); assay: PBM binding z-score (relative to random genomic background probes); higher = stronger binding; sequences stand for … in GC…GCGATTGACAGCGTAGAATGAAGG
READOUT LABEL: PBM binding z-score

POLYMER SEQUENCE	NUMERIC RESULT
CTCGAAAGGTCGGTTGAGGTGAGAATACGGATAA	0.993
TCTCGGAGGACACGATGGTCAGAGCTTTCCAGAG	-0.167
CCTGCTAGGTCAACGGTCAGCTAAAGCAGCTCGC	4.76
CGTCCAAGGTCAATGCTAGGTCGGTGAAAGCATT	3.65
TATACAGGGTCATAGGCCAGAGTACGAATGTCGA	4.47
ATATGTAGGTTATCGGGTCATTAAGTTTGCGCAT	7.55
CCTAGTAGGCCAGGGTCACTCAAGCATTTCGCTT	4.48
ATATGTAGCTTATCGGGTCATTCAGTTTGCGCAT	1.81
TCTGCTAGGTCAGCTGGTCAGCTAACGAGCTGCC	2.82
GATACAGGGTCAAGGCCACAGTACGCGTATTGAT	4.31
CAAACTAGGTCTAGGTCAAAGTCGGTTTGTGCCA	4.82
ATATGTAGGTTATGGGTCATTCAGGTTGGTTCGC	7.26
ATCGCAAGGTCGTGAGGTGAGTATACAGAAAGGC	1.26
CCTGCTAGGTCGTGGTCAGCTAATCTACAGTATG	0.742
ATACCAAGGTGATCGTGAAGTCGTTGATACTAAC	1.26
ACTATTAGTTGAGTCGAGGGCAACCGATAGGTTG	0.962
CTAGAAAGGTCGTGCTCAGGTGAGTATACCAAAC	1.62
